human RIP1 kinase domain (2-375) (Homo sapiens (Human), UniProt Q13546) Ki data
Sequence (Q13546 2-375): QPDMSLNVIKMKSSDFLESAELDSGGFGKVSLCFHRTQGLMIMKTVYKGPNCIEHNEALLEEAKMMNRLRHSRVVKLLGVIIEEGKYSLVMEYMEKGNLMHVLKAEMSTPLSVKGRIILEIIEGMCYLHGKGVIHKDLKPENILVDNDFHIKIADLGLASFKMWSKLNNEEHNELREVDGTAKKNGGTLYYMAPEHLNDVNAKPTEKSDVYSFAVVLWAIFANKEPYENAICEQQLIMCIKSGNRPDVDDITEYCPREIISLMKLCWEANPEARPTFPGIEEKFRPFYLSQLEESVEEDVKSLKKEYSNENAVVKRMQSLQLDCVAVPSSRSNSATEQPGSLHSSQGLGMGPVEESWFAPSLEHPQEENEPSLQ
ASSAY METRIC: Ki (nM)

O=C(c1nc2n(n1)C(c1ccccc1)CC2)N1CCCCC1 (racemic)    5400
O=C(c1nc2n(n1)[C@@H](c1ccccc1F)CC2)N1CC(F)(F)C1 (single isomer, unassigned)    9
O=C(c1nc2n(n1)[C@H](c1ccccc1)C[C@H]2F)N1CC(F)C1 (racemic)    1300
O=C(c1nc2n(n1)[C@H](c1ccccc1)C[C@@H]2F)N1CCc2cccc(F)c2C1 (racemic)    18

(1) CN(C)C(=O)c1nc2n(n1)CCOC2c1ccccc1 (racemic)
(2) CCN(CC)C(=O)c1nc2n(n1)CCOC2c1ccccc1F (racemic)
# returns the entry with the larger Ki; inputs 1 and 2 // caller expects the label of the chosen entry 1

(A) O=C(c1nc2n(n1)[C@H](c1ccccc1)C[C@@H]2F)N1CCc2ccncc2C1 (racemic)
(B) O=C(c1nc2n(n1)[C@H](c1ccccc1)C[C@@H]2F)N1CC(F)(F)C[C@H]1CF (racemic)
(C) O=C(c1nc2n(n1)[C@H](c1ccccc1)C[C@@H]2F)N1CCC(F)(F)C1 (stereo in doubt)
(D) O=C(c1nc2n(n1)CCOC2c1ccccc1F)N1CC(F)C1 (racemic)
(E) O=C(c1cc2n(n1)CCOC2c1ccccc1)N1CC(F)(F)C1 (racemic)
Endpoint returns the given compounds ordered by ascending Ki. In plain terms: list the labels in the order you were asked to. C, A, B, E, D

(P) O=C(c1nc2n(n1)C(c1ccccc1F)CC2)N1CC(F)(F)C1 (racemic)
(Q) O=C(c1nc2n(n1)[C@@H](c1ccccc1)CC2)N1CC(F)(F)C1 (stereo in doubt)
(R) O=C(c1nc2n(n1)[C@H](c1ccccc1)C[C@@H]2F)N1CCC(C(F)(F)F)n2nccc21 (mixture of isomers)
Please list these compounds in decreasing order of Ki. In plain terms: list the labels in the order you were asked to. R, Q, P
(R: 250 nM, Q: 66 nM, P: 44 nM)

* * *

human RIP1 kinase domain (2-375) (Homo sapiens (Human), UniProt Q13546) Ki data
ASSAY METRIC: Ki (nM)

CC1CN(C(=O)c2nc3n(n2)[C@H](c2ccccc2)C[C@@H]3F)Cc2ccnn21 (mixture of isomers)    130
O=C(c1nc2n(n1)[C@H](c1ccccc1)C[C@@H]2F)N1CCCC1C(F)F (mixture of isomers)    60
O=C(c1nc2n(n1)[C@@H](c1ccccc1)C[C@H]2F)N1CCC[C@H]1C(F)F (racemic)    4
CC(F)(F)C1CCc2nc(C(=O)N3CC(F)(F)C3)nn21 (racemic)    8690
O=C(c1nc2n(n1)[C@@H](c1ccccc1)C[C@H]2F)N1CC(F)C1 (racemic)    32
O=C(c1nc2n(n1)[C@H](c1ccccc1)C[C@@H]2F)N1CCn2nccc2C1 (stereo in doubt)    52
CN(C)C(=O)c1nc2n(n1)C(c1ccccc1)CC2 (racemic)    2200
O=C(c1nc2n(n1)[C@H](c1ccccc1)C[C@@H]2F)N1CCC[C@H]1C(F)(F)F (racemic)    450

(a) O=C(c1nc2n(n1)[C@H](c1ccccc1)C[C@@H]2F)N1CCc2cccnc2C1 (stereo in doubt)
(b) O=C(c1cc2n(n1)CCOC2c1ccccc1F)N1CC(F)(F)C1 (racemic)
(c) O=C(c1nc2n(n1)[C@H](c1ccccc1)C[C@@H]2F)N(C1CC1)C1CC1 (racemic)
(d) O=C(c1nc2n(n1)[C@H](c1ccccc1)C[C@@H]2F)N(CC(F)(F)F)C1COC1 (racemic)
Please list these compounds in decreasing order of Ki. In plain terms: list the labels in the order you were asked to. c, b, d, a

(I) O=C(c1nc2n(n1)C(c1ccccc1F)CC2)N1CCCC1 (racemic)
(II) O=C(c1nc2n(n1)C(c1ccccc1)C1CC21)N1CC(F)C1 (racemic)
// task: argmin of Ki over [ I , II ] // caller expects the label of the chosen entry II
(II: 917 nM, I: 3400 nM)

(a) C[C@H]1[C@H](C(F)(F)F)CCN1C(=O)c1nc2n(n1)[C@H](c1ccccc1)C[C@@H]2F (racemic)
(b) O=C(c1nc2n(n1)[C@H](c1ccccc1)C[C@@H]2F)N1CC2CC1CC2(F)F (mixture of isomers)
// task: argmin of Ki over [ a , b ] // caller expects the label of the chosen entry b

* * *

human RIP1 kinase domain (2-375) (Homo sapiens (Human)) Ki data
ASSAY METRIC: Ki (nM)

O=C(c1nc2n(n1)[C@@H](c1ccccc1)C[C@H]2F)N1CCC[C@@H]1C(F)F (single isomer, unassigned)    36
CNC(=O)c1nc2n(n1)C(c1ccccc1)CC2 (racemic)    3600
O=C(c1nc2n(n1)C(c1ccccc1)CC2)N1CC2CC1C2 (racemic)    8900

(A) O=C(c1nc2n(n1)[C@@H](c1ccccc1)C[C@H]2F)N1CCc2ccccc2C1 (stereo in doubt)
(B) O=C(c1nc2n(n1)[C@@H](c1ccccc1)CC2(F)F)N1CC(F)(F)C1 (single isomer, unassigned)
(C) O=C(c1cc2n(n1)CC[C@@H]2c1ccccc1)N1CC(F)(F)C1
(D) O=C(c1nc2n(n1)[C@H](c1ccccc1)CC2)N1CC(F)(F)C1 (stereo in doubt)
Please list these compounds in decreasing order of Ki. In plain terms: list the labels in the order you were asked to. D, C, A, B
(D: 7100 nM, C: 2660 nM, A: 31 nM, B: 8 nM)
